Literature IC50 values, system: Histone deacetylase 2 (Homo sapiens, UniProt Q92769).
Readout name: IC50 (µM)

{"columns": ["Chemical string", "Unit spec", "Operator symbol", "Measured value"],
 "data": [
  ["Br.CN(C)C(SCCCCCCn1cnc2c(-c3cc(Br)c(Br)[nH]3)nccc21)=[N+](C)C.[Cl-]", "µM", ">", 200],
  ["Cc1nn(Cc2ccc(C(=O)NN)cc2)c(C)c1Cl", "µM", ">", 200],
  ["Nc1ccccc1NC(=O)CCCCCC(=O)Nc1cccc(C(F)(F)F)c1", "µM", "=", 0.176],
  ["CS(=O)(=O)N(Cc1ccc(C(=O)NN)cn1)c1cccc(Cl)c1", "µM", ">", 20],
  ["COc1cc(/C=C/C(=O)c2ccc(OCCCCC(=O)NO)cc2)cc(OC)c1OC", "µM", "=", 0.119],
  ["CC[C@H]1OC(=O)[C@H](C)[C@@H](O[C@H]2C[C@@](C)(OC)[C@@H](O)[C@H](C)O2)[C@H](C)[C@@H](O[C@@H]2O[C@H](C)C[C@H](N(C)Cc3ccc(-c4cn(CCCCCCC(=O)NO)nn4)cc3)[C@H]2O)[C@](C)(O)C[C@@H](C)CN(C)[C@H](C)[C@@H](O)[C@]1(C)O", "µM", "=", 0.0081],
  ["O=C(CSc1nc2cc(Cl)c3cccnc3c2o1)c1ccc(O)c(O)c1", "µM", ">", 1000],
  ["CS(=O)(=O)N(Cc1ccc(-c2nnc(C(F)(F)F)o2)cn1)c1cccc(Cl)c1", "µM", "=", 17.4],
  ["COc1cc(-c2cc(-c3ccc(OCCCCC(=O)NO)cc3)[nH]c(=O)c2C#N)cc(OC)c1OC", "µM", "=", 0.256],
  ["COc1ccccc1OCc1ccc(C(=O)NN)cc1", "µM", ">", 200],
  ["Cc1cc(C)nc(SCC(=O)Nc2ncc(Cc3cccc(OCc4cn(CCOCCOCCOCCOCCC(=O)Nc5ccc(C(=O)NCCCCCCC(=O)NO)cc5)nn4)c3)s2)n1", "µM", "=", 0.34],
  ["CS(=O)(=O)N(Cc1ccc(C(=O)NNC(=O)C(F)(F)F)cn1)c1cccc(Cl)c1", "µM", ">", 20],
  ["NNC(=O)c1ccc(COc2ccccc2Br)cc1", "µM", ">", 1000],
  ["NNC(=O)c1ccc(Cn2cc(Cl)cn2)cc1", "µM", ">", 200],
  ["COc1cc(C(=O)NC(=Cc2ccc(Cl)cc2)C(=O)NNC(=O)/C(=C/c2ccco2)NC(=O)c2cc(OC)c(OC)c(OC)c2)cc(OC)c1OC", "µM", "=", 0.086],
  ["COc1cc(/C=C/C(=O)c2ccc(OCCCCCC(=O)NO)cc2)cc(OC)c1OC", "µM", "=", 0.168],
  ["COc1cccc(-c2nc3c(c(-c4cccc(OC)c4)n2)CCN(C(=O)CCCCCCC(=O)NO)C3)c1", "µM", "=", 0.39]
]}
